Exercise: for every item that follows, state its recorded residual activity.
Biological target: EPHA2 (human)
Experiment: radiometric filter-binding kinase assay, Kinase HotSpot
Conditions: compound 0.5 µM; ATP 10 µM
Numbers only, in %.

Give the measured residual activity of `COc1ccc(COc2ccc(Cc3cnc(N)nc3N)cc2OC)cc1` .
107

Okay, and `c1ccc(-c2n[nH]cc2-c2ccnc3ccccc23)nc1` ?
103

Consider now this further compound.
Give the measured residual activity of `Cc1[nH]c(/C=C2\C(=O)Nc3ccc(S(=O)(=O)N(C)c4cccc(Cl)c4)cc32)c(C)c1C(=O)N1CCN(C)CC1` .
97.8

* * *

Exercise: for every item that follows, state its recorded residual activity.
Biological target: SRMS (human)
Assay: radiometric filter-binding kinase assay, Kinase HotSpot
Details: compound 0.5 µM; ATP 10 µM
Numbers only, in %.

Give the measured residual activity of `CC(=O)c1ccc(N2CCOCC2)cc1O` .
94.7

Okay, and `COc1cc2ncnc(Nc3cccc(Cl)c3)c2cc1OC` ?
93.8

Consider the following items and state reported residual activity for each.
1. Oc1cccc(-c2nc(N3CCOCC3)c3oc4ncccc4c3n2)c1
2. CC#CC(=O)Nc1cc2c(Nc3ccc(F)c(Cl)c3)ncnc2cn1
3. Cc1ccc(S(=O)(=O)/C=C/C#N)cc1

96.2
96.1
98.8

Consider the following items and state reported residual activity for each.
1. CCN(CC)CCNC(=O)c1c(C)[nH]c(/C=C2\C(=O)Nc3ccc(Cl)cc32)c1C
2. CO[C@H]1CC2CC[C@@H](C)[C@@](O)(O2)C(=O)C(=O)N2CCCC[C@H]2C(=O)OC([C@H](C)C[C@@H]2CC[C@@H](O)[C@H](OC)C2)CC(=O)[C@H](C)/C=C(\C)[C@@H](O)[C@@H](OC)C(=O)[C@H](C)C[C@H](C)/C=C/C=C/C=C/1C (some centres undefined)
3. O=S(=O)(c1cccc2cnccc12)N1CCCNCC1
4. CC(C)N(CCC(=O)c1ccc2ccccc2c1)Cc1ccccc1

[102, 108, 97.5, 103]

* * *

Molecular target: CDK7 CCNH MNAT1 (human) (UniProt P50613+P51948+P51946)
Sequence (P50613 whole entry, looked up): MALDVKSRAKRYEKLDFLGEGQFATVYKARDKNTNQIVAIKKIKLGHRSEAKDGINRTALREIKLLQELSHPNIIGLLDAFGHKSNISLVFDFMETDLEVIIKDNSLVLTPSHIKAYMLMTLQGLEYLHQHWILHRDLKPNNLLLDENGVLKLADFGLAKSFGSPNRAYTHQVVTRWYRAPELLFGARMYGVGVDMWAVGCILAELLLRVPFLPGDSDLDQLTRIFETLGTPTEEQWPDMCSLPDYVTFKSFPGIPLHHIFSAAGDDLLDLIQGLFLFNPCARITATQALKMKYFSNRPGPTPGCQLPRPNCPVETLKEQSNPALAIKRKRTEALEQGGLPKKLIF
Sequence (P51946 whole entry, looked up): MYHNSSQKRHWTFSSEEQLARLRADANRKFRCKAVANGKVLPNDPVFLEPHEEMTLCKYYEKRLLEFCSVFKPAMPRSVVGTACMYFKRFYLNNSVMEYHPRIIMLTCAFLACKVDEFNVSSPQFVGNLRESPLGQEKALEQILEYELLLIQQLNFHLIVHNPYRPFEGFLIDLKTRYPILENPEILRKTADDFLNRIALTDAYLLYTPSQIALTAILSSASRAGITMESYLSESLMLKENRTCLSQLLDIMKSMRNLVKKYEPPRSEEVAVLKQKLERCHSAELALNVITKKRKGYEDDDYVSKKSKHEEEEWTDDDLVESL
Sequence (P51948 whole entry, looked up): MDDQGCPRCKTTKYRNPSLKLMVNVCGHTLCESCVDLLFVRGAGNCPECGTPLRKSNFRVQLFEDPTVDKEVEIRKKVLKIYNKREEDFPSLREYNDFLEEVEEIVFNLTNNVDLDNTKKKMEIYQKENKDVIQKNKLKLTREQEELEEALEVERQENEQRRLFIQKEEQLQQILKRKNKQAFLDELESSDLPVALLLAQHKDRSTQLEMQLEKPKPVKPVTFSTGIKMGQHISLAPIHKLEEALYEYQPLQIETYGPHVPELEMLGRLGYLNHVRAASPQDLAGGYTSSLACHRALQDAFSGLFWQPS
Experiment: radiometric filter-binding kinase assay, Kinase HotSpot
Conditions: compound 0.5 µM; ATP 10 µM
Exercise: for every item that follows, state its recorded residual activity.

Example entries and their recorded answers appear below.
Give the measured residual activity of `COc1ccc2c(c[n+](C)c3c4cc5c(cc4ccc23)OCO5)c1OC` .
91.9%

Okay, and `CCN(CC)CCNC(=O)c1c(C)[nH]c(/C=C2\C(=O)Nc3ccc(Cl)cc32)c1C` ?
72.8%

Okay, and `CCC(=O)Nc1ccc2ncnc(Nc3cccc(Br)c3)c2c1` ?
102%

Okay, and `Nc1ncnc2[nH]nc(Nc3ccc(F)cc3)c12` ?
98.4%

Okay, and `O=C1NC(=O)c2c1c1c3ccccc3n3c1c1c2c2ccccc2n1C1CCC3O1` ?
80.4%

Consider the following items and state reported residual activity for each.
1. Nc1ncnc2c1c(-c1ccc(Oc3ccccc3)cc1)cn2C1CCCC1
2. CNC(=O)c1cc(Oc2ccc(NC(=O)Nc3ccc(Cl)c(C(F)(F)F)c3)cc2)ccn1

1: 96.8%; 2: 102%

Consider the following items and state reported residual activity for each.
1. Cc1nc(Nc2ncc(C(=O)Nc3c(C)cccc3Cl)s2)cc(N2CCN(CCO)CC2)n1
2. CC(=O)c1ccc(N2CCOCC2)cc1O
3. CC[n+]1c(/C=C/N(C)c2ccccc2)n(-c2ccccc2)c2ccc(-c3nc4ccccc4s3)cc21
4. c1ccc(-c2n[nH]c3c2oc2ccccc23)cc1
5. Nc1cccc(-c2cc3c(Oc4cccc(O)c4)ncnc3[nH]2)c1
6. COc1ccc(COc2ccc(Cc3cnc(N)nc3N)cc2OC)cc1

["112%", "105%", "97.8%", "101%", "94.2%", "100%"]
